target: NLRP3 inflammasome (Homo sapiens); test: NLRP3 inflammasome activation in THP1 macrophages (LPS priming, nigericin), IL-1β AlphaLISA; conditions: PMA-differentiated THP1, LPS 20 ng/ml 3 hrs, compound 1 hr, Nigericin 6.7 uM 3 hrs, supernatant
pIC50: −log10 of the molar value.
recorded-metric: pIC50

Query: Specify the recorded pIC50 for Cc1cc(N[C@@H]2CCCN(C)C2)nnc1-c1ccc(F)c(Cl)c1 [compound 34] , system: NLRP3 inflammasome (Homo sapiens).
Result: 6.30 to 7.00

Query: State recorded pIC50 with NLRP3 inflammasome (Homo sapiens), entry Cc1cc(-c2ccc(F)c(F)c2)nnc1N[C@@H]1CCCN(C)C1 [compound 117] , no comment.
Result: < 6.00

Query: Under NLRP3 inflammasome (Homo sapiens), report pIC50 for Cc1cc(N[C@@H]2CCCN(CCF)C2)nnc1-c1ccc(F)cc1 [compound 65]
Result: 6.00 to 6.30

Query: Write down the reported pIC50 (system: NLRP3 inflammasome (Homo sapiens)) of Cc1cc(-c2ccc(Cl)c(F)c2)nnc1N[C@@H]1CCCN(C)C1 [compound 147]
Result: < 6.00

Query: Answer with pIC50 of Cc1cc(Cl)ccc1-c1cc(C)c(N[C@@H]2CCCN(C)C2)nn1 [compound 124] measured for NLRP3 inflammasome (Homo sapiens).
Result: 7.30 to 8.00

Query: Give pIC50 for Cc1cc(N[C@@H]2CCCN(CC(F)(F)F)C2)nnc1-c1ccc(F)cc1 [compound 115] tested on NLRP3 inflammasome (Homo sapiens).
Result: < 6.00

Query: Fill in pIC50 for CN1CCC[C@@H](Nc2ccc(-c3ccc(F)cc3C(F)(F)F)nn2)C1 [compound 130] tested with NLRP3 inflammasome (Homo sapiens).
Result: 7.30 to 8.00

Query: With NLRP3 inflammasome (Homo sapiens) as the test system, provide measured pIC50 for this compound: CC(C)c1cc(N[C@@H]2CCCN(C)C2)nnc1-c1ccc(C(F)(F)F)cc1 [compound 23]
Result: 6.30 to 7.00

Query: # lookup: NLRP3 inflammasome (Homo sapiens) pIC50, key = Cc1cc(N[C@@H]2CCCN(C)C2)nnc1-c1cccc(Cl)c1 [compound 43]
Result: < 6.00

Query: Provide pIC50, system NLRP3 inflammasome (Homo sapiens), entry Cc1cc(-c2nnc(N[C@@H]3CCCN(C)C3)cc2C)ccc1Cl [compound 162]
Result: 7.30 to 8.00

Query: Consider the compound Cc1cc(N[C@@H]2CCCN(C)C2)nnc1-c1ccc(Cl)cc1C(F)(F)F [compound 169] tested on NLRP3 inflammasome (Homo sapiens); state its pIC50.
Result: 7.30 to 8.00

====

target: UniProtKB Q96P20; assay: NLRP3 inflammasome activation in THP1 macrophages (LPS priming, nigericin), IL-1β AlphaLISA; conditions: PMA-differentiated THP1, LPS 20 ng/ml 3 hrs, compound 1 hr, Nigericin 6.7 uM 3 hrs, supernatant
pIC50: −log10 of the molar value.
Field: pIC50. Provide a value for each of the compounds that follow.

Query: // fetch pIC50 for "Cc1cc(C(F)(F)F)c(C)cc1-c1ccc(N[C@@H]2CCCN(C)C2)nn1" ; system: UniProtKB Q96P20
Result: < 6.00

Query: State, for UniProtKB Q96P20, measured pIC50 of the compound listed here: "Cc1cc(Cl)ccc1-c1ccc(N[C@@H]2CCCN(C)C2)nn1"
Result: 7.00 to 7.30

Query: Give UniProtKB Q96P20 pIC50 for the following compound: "Cc1cc(N[C@@H]2CCCN(C)C2)nnc1-c1ccc(C(F)(F)F)c(Cl)c1"
Result: 6.00 to 6.30

Query: Name the recorded pIC50 of "CN1CCC[C@@H](Nc2nnc(-c3ccc(C(F)(F)F)cc3)cc2C(F)(F)F)C1" , assay system UniProtKB Q96P20.
Result: < 6.00

Query: Give reported pIC50 for "Cc1cc(Cl)ccc1-c1nnc(N[C@@H]2CCCN(C)C2)cc1C" (UniProtKB Q96P20)
Result: ≥ 8.00

Query: Give the observed pIC50 of "Cc1cc(-c2ccc(C3CC3)cc2)nnc1N[C@@H]1CCCN(C)C1" for UniProtKB Q96P20.
Result: < 6.00

Query: Please indicate recorded pIC50 of "CCN1CCC[C@@H](Nc2cc(C)c(-c3ccc(C(F)(F)F)cc3)nn2)C1" measured with UniProtKB Q96P20.
Result: ≥ 8.00

Query: Look up UniProtKB Q96P20 data: pIC50 of "Cc1cc(N[C@@H]2CCCN(C)C2)nnc1-c1ccc(C2CC2)cc1" , then report it.
Result: 7.30 to 8.00

Query: Provide UniProtKB Q96P20 pIC50 reading for "Cc1cc(-c2ccc(Cl)cc2C(F)F)nnc1N[C@@H]1CCCN(C)C1" .
Result: ≥ 8.00

Query: Provide pIC50, recorded with UniProtKB Q96P20, of "CN1CCC[C@@H](Nc2nnc(-c3ccc(C(F)(F)F)cc3)cc2C#N)C1"
Result: < 6.00

Query: Print UniProtKB Q96P20 pIC50 for "CN1CCC[C@@H](Nc2nnc(-c3ccc(Cl)cc3)cc2C(F)(F)F)C1" .
Result: 6.00 to 6.30

Query: GET pIC50 where system = UniProtKB Q96P20 and item = "COc1cc(N[C@@H]2CCCN(C)C2)nnc1-c1ccc(C(F)(F)F)cc1C"
Result: < 6.00

Query: Jot down pIC50 (UniProtKB Q96P20) of "Cc1cc(-c2ccc(F)c(C#N)c2)nnc1N[C@@H]1CCCN(C)C1" .
Result: < 6.00

Query: Please look at "CN1CCC[C@@H](Nc2cc(C(F)(F)F)c(-c3ccc(Cl)cc3)nn2)C1" and tell me its recorded pIC50 on UniProtKB Q96P20.
Result: ≥ 8.00

Query: Find pIC50 for "Cc1cc(O[C@@H]2CCCN(C)C2)nnc1-c1ccc(C(F)(F)F)cc1" on UniProtKB Q96P20 and write it down.
Result: 6.30 to 7.00

Query: GET pIC50 where system = UniProtKB Q96P20 and item = "CN1CCC[C@@H](Nc2ccc(-c3ccc(Cl)cc3)nn2)C1"
Result: 7.00 to 7.30

Query: Please respond with reported pIC50 (system UniProtKB Q96P20) for "Cc1cc(Cl)ccc1-c1nnc(O[C@@H]2CCCN(C)C2)cc1C" .
Result: 6.00 to 6.30

Query: Give pIC50 for "CCN1C[C@H](F)C[C@@H](Nc2cc(C)c(-c3ccc(F)cc3)nn2)C1" tested on UniProtKB Q96P20.
Result: < 6.00

Query: Give the observed pIC50 of "Cc1cc(N[C@@H]2CCCN(C)C2)nnc1-c1ccc(F)cc1C(F)F" for UniProtKB Q96P20.
Result: 7.30 to 8.00

Query: Find the measured pIC50 of "Cc1ccc(-c2cc(C)c(N[C@@H]3CCCN(C)C3)nn2)cc1" with UniProtKB Q96P20 as test system.
Result: < 6.00

Query: // fetch pIC50; item: "Cc1cc(N[C@@H]2CCCN(C)C2)nnc1-c1cccc(F)c1" ; system: UniProtKB Q96P20
Result: < 6.00

Query: # return pIC50 for "CCc1ccc(-c2nnc(N[C@@H]3CCCN(C)C3)cc2C)cc1" , test system: UniProtKB Q96P20
Result: 7.30 to 8.00

Query: Write down the reported pIC50 (system: UniProtKB Q96P20) of "Cc1cc(N[C@@H]2CCCN(C)C2)nnc1-c1ccc(F)cc1"
Result: 7.30 to 8.00

Query: For UniProtKB Q96P20, give the measured pIC50 of the entry "Cc1ccccc1-c1nnc(N[C@@H]2CCCN(C)C2)cc1C"
Result: < 6.00

Query: // fetch pIC50; item: "Cc1cc(N[C@H]2CN(C)CC[C@@H]2F)nnc1-c1ccc(F)cc1" ; system: UniProtKB Q96P20
Result: < 6.00

====

target: NLRP3 inflammasome (Homo sapiens, UniProt Q96P20); test: NLRP3 inflammasome activation in THP1 macrophages (LPS priming, nigericin), IL-1β AlphaLISA; settings: PMA-differentiated THP1, LPS 20 ng/ml 3 hrs, compound 1 hr, Nigericin 6.7 uM 3 hrs, supernatant
Sequence (Q96P20 whole entry): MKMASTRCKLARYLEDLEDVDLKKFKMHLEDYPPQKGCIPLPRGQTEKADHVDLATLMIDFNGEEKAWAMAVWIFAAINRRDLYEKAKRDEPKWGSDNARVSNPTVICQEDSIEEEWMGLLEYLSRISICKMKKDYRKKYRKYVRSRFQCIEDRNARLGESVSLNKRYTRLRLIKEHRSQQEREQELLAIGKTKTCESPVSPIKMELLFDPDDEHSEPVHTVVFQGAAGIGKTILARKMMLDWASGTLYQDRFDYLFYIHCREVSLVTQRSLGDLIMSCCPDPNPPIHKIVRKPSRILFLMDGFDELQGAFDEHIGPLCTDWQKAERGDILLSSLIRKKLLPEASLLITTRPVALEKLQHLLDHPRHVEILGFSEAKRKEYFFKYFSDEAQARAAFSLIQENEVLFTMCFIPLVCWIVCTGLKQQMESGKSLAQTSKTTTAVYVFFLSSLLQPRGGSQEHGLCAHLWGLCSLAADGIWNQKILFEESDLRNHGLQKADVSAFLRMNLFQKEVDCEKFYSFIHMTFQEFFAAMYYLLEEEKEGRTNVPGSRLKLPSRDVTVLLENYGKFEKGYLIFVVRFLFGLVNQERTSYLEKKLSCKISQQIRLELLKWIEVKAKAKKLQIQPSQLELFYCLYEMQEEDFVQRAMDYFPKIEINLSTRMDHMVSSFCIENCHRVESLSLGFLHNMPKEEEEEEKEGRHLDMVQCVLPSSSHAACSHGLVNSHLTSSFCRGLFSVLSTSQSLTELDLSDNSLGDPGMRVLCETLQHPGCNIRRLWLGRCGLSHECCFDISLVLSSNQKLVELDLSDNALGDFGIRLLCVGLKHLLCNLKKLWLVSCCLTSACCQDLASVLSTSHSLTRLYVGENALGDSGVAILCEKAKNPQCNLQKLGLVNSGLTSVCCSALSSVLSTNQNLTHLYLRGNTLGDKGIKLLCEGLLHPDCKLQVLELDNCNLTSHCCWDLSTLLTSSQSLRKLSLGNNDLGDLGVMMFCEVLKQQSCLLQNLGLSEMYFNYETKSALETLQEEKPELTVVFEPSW
recorded-metric: IC50

Query: Please supply the value of reported IC50 for the item "Cc1cc(N[C@@H]2CCCN(C(C)C)C2)nnc1-c1ccc(F)cc1"
Result: 10 to 50 nM

Query: Give a short answer stating reported IC50 for "Cc1ccc(-c2nnc(N[C@@H]3CCCN(C)C3)cc2C(F)(F)F)cc1" .
Result: 50 to 100 nM

Query: Give the value of IC50 reported for the following: "CN1CCC[C@@H](Nc2cc(F)c(-c3ccc(C(F)(F)F)cc3)nn2)C1"
Result: 10 to 50 nM

Query: Provide IC50 value for the following compound: "Cc1c(N[C@@H]2CCCN(C)C2)nnc(-c2ccc(C(F)(F)F)cc2)c1C"
Result: 10 to 50 nM

Query: Specify reported IC50 for the compound shown: "Cc1cc(N(C2CC2)[C@@H]2CCCN(C)C2)nnc1-c1ccc(C(F)(F)F)cc1"
Result: ≤ 10 nM

Query: Respond only with IC50 recorded for "Cc1cc(N(C)[C@@H]2CCCN(C)C2)nnc1-c1ccc(Cl)cc1"
Result: 100 to 500 nM

Query: Consider the compound "Cc1cc(N[C@@H]2CCCN(C)C2)nnc1-c1ccccc1" and give its recorded IC50.
Result: > 1000 nM

Query: Read off the recorded IC50 for "Cc1cc(N[C@@H]2CCCNC2)nnc1-c1ccc(C(F)(F)F)cc1"
Result: 50 to 100 nM
